# Tgt: T1, PSMA Fab
# T1 construct: Biotinylated and captured on neutravidin plates in the phage ELISA; also called anti-PSMA Fab; 006 PSMA Fab
# Method: clonal phage ELISA on biotinylated PSMA Fab captured on neutravidin plates, anti-M13-HRP detection, no PSMA antigen
Measured endpoint: phage binding ELISA signal

>>> reported_measurement("IERMCRPAWMCDGF [Phage-2896]")
2.35
>>> reported_measurement("ALPQCVPAWMCLGF [Phage-2893]")
2.35
>>> reported_measurement("PWLMCKPAWMCTGF [Phage-2900]")
2.34
>>> reported_measurement("VTPKCVPMWMCAGF [Phage-2901]")
2.34
>>> reported_measurement("QALMCVPEWMCLGF [Phage-2895]")
2.35
>>> reported_measurement("MEIRCTPPWMCMGF [Phage-2899]")
2.34
>>> reported_measurement("QTVMCRPAWMCVGF [Phage-2902]")
2.34
>>> reported_measurement("NWPVCKPMWMCTGF [Phage-2898]")
2.34

# credit: patent US20260242478A1
